Entries and their residual activity
TARGET SYSTEM: ERBB2 (human) (UniProt P04626)
Sequence (P04626 whole entry, looked up): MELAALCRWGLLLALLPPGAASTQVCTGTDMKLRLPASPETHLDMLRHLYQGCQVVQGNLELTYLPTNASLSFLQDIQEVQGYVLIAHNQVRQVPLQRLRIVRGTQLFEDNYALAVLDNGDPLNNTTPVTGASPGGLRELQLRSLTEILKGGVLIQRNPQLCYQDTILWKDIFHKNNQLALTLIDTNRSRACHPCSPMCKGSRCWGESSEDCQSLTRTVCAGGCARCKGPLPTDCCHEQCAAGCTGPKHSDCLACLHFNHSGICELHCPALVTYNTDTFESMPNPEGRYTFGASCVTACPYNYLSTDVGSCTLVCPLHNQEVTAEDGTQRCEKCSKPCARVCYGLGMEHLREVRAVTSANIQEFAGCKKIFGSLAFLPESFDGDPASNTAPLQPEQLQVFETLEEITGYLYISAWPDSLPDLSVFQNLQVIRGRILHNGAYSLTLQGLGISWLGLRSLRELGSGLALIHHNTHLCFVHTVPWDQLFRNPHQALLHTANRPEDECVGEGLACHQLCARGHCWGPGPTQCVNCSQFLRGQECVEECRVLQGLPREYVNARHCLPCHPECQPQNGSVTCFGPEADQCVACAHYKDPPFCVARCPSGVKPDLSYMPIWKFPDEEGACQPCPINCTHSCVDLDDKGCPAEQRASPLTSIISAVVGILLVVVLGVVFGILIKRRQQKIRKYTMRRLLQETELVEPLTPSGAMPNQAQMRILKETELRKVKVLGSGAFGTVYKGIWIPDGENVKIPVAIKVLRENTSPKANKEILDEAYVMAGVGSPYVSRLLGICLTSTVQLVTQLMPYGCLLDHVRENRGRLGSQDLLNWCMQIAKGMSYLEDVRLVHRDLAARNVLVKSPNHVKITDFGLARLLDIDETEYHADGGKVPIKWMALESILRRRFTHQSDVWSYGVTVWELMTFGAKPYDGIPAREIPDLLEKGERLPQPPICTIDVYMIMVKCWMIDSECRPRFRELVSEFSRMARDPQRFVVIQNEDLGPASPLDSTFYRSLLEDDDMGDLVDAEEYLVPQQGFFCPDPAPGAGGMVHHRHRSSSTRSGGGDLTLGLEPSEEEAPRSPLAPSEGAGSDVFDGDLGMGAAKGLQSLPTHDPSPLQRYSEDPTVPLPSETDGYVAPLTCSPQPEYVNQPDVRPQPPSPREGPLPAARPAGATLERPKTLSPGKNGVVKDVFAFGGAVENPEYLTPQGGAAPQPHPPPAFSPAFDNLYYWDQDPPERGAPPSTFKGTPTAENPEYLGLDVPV
PROTOCOL: radiometric filter-binding kinase assay, Kinase HotSpot
STATED CONDITIONS: compound 0.5 µM; ATP 10 µM
// note: answer is a bare numeric in %

COc1ccc(COc2ccc(Cc3cnc(N)nc3N)cc2OC)cc1 yielded residual activity of 106

Reported residual activity of c1ccc(-c2n[nH]c3c2oc2ccccc23)cc1 : 104

Quick note, residual activity for CNC(=O)c1cc(Oc2ccc(NC(=O)Nc3ccc(Cl)c(C(F)(F)F)c3)cc2)ccn1 landed at 103

Noted for O=C1Nc2ccc(Cl)cc2/C1=C/c1cc(Cl)c(O)c(Cl)c1 : its residual activity reads 107
